Origin of the recorded values: paper PMC10914731

assay: Hepatocyte stability, mice; type: in vitro ADME; conditions: clearance in hepatocytes
*1 amine or outer side, *2 acyl side, *3 side chain or, on linkers, in order; H or OH if unused. Where a SMILES comes first, the peptide text is derived from it. [ ]: non-standard residue; d: D form. X7 = C=CCn1cc(C[C@H](N[*:1])C(=O)[*:2])c2ccccc21; NMeLeu(5-OH,4R) = CN[C@@H](C[C@@H](C)CO)C(=O)O; Phe(βR-OMe) = CO[C@H](c1ccccc1)[C@H](N)C(=O)O; NMeL = CN[C@@H](CC(C)C)C(=O)O
measuredAttribute: Hepatocyte Mice (%Qh)

C=CCn1cc(C[C@@H]2NC(=O)[C@H](C(C)C)NC(=O)[C@H](CC(C)C)N(C)C(=O)[C@H](C(C)C)NC(=O)[C@H]([C@H](OC)c3ccccc3)NC(=O)[C@H](C)NC(=O)[C@H](C[C@@H](C)CO)N(C)C2=O)c2ccccc21 [Compound 13] (cyclo(A[Phe(βR-OMe)]V[NMeL]V[X7][NMeLeu(5-OH,4R)]))
59
CO[C@H](c1ccccc1)[C@@H]1NC(=O)[C@H](C)NC(=O)[C@H](C[C@@H](C)CO)N(C)C(=O)[C@H](Cc2cn(C)c3ccccc23)N(C)C(=O)[C@H](Cc2cn(CCCCCn3cc(C[C@@H]4NC(=O)[C@H](CC(C)C)N(C)C(=O)[C@H](C(C)C)NC(=O)[C@H]([C@H](OC)c5ccccc5)NC(=O)[C@H](C)NC(=O)[C@H](C[C@@H](C)CO)N(C)C(=O)[C@H](Cc5cn(C)c6ccccc56)N(C)C4=O)nn3)nn2)NC(=O)[C@H](CC(C)C)N(C)C(=O)[C@H](C(C)C)NC1=O
15
CCCCCn1cc(C[C@@H]2NC(=O)[C@H](CC(C)C)N(C)C(=O)[C@H](C(C)C)NC(=O)[C@H]([C@H](OC)c3ccccc3)NC(=O)[C@H](C)NC(=O)[C@H](C[C@@H](C)CO)N(C)C(=O)[C@H](Cc3cn(C)c4ccccc34)NC2=O)nn1
35
CO[C@H](c1ccccc1)[C@@H]1NC(=O)[C@H](C)NC(=O)[C@H](C[C@@H](C)CO)N(C)C(=O)[C@H](Cc2cn(Cc3cn(CCOCCn4cc(Cn5cc(C[C@@H]6NC(=O)[C@H](C(C)C)NC(=O)[C@H](CC(C)C)N(C)C(=O)[C@H](C(C)C)NC(=O)[C@H]([C@H](OC)c7ccccc7)NC(=O)[C@H](C)NC(=O)[C@H](C[C@@H](C)CO)N(C)C6=O)c6ccccc65)nn4)nn3)c3ccccc23)NC(=O)[C@H](C(C)C)NC(=O)[C@H](CC(C)C)N(C)C(=O)[C@H](C(C)C)NC1=O
15
CO[C@H](c1ccccc1)[C@@H]1NC(=O)[C@H](C)NC(=O)[C@H](C[C@@H](C)CO)N(C)C(=O)[C@H](Cc2cn(CCCCn3cc(C[C@H]4C(=O)N(C)[C@@H](C[C@@H](C)CO)C(=O)N[C@@H](C)C(=O)N[C@@H]([C@H](OC)c5ccccc5)C(=O)N[C@@H](C(C)C)C(=O)N(C)[C@@H](CC(C)C)C(=O)N[C@@H](C(C)C)C(=O)N4C)c4ccccc43)c3ccccc23)N(C)C(=O)[C@H](C(C)C)NC(=O)[C@H](CC(C)C)N(C)C(=O)[C@H](C(C)C)NC1=O
15
